- test system: T1, human Trop-2-ECD-6His fusion protein (human, UniProt P09758 27-274)
- T1 construct: Expressed in a human 293 cell line; also called huTrop-2; human Trop-2 antigen
- T1 sequence: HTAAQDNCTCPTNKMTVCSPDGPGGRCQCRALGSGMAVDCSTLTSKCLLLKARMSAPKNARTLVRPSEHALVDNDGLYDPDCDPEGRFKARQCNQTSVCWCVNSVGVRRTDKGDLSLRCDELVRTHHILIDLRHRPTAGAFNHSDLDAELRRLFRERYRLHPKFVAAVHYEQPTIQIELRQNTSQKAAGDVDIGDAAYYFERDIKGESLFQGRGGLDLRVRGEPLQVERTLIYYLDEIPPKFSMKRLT
- assay protocol: antigen binding ELISA on immobilized human Trop-2-ECD-6His
Below is a list of entries, each paired with its recorded EC50 value.
Record the value in nM, omitting the unit from your answer.

- binder: "humanized IgG #118-2-5 HuB/LuX (antibody, V domains shown, Full-length IgG expressed in HEK293-6E cells; also called 2 (HuB/LuX)) VH: QVQLKQSGPGLVAPSQSLSITCTVSGFSLTSYGVNWIRQPPGKGLEWIGVMWAGGSTNYNSALMSRVTISVDTSKNQFSLKLSSVTAADTAVYYCARDENWDGAWFAYWGQGTLVTVSS VL: DIVMTQSPDSLAVSLGERATINCKSSQSLLNSGTRKNYLAWYQQKPGQPPKLLIYWASSRESGVPDRFSGSGSGTDFTLTISSLQAEDVAVYYCKQSYNLFTFGGGTKVEIK"
  recorded metric: "EC50"
  unit annotation: "nM"
  reported value: 0.164

Note: attention shifts to another entry.
The reported EC50 of the binder humanized IgG #118-2-5 HuD/LuX (antibody, V domains shown, Full-length IgG expressed in HEK293-6E cells; also called 4 (HuD/LuX)) VH: QVQLKESGPGLVAPSETLSITCTVSGFSLTSYGVNWIRQPPGKGLEWLGVMWAGGSTNYNSALMSRLTISKDTSKNQVSLKLSSVQAADTAMYYCARDENWDGAWFAYWGQGTLVTVSS VL: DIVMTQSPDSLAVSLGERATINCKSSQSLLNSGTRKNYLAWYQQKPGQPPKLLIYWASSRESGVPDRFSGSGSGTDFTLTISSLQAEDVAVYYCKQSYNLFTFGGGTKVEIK was 0.011
